System: OVCAR-3
Experiment: Growth inhibition of human OVCAR3 cells assessed as cell growth at 10 uM after 48 hrs by sulforhodamine B assay relative to control
Format: functional
Settings: OVCAR-3, 48 h, read-out: Activity
measure.name: growth at 10 µM (%)

* COc1ccc(Cn2cc(C(=O)N/N=C3/C(=O)Nc4ccc(Cl)cc43)nn2)cc1 | 109
* COc1ccc(Cn2cc(C(=O)N/N=C3/C(=O)Nc4ccc(Br)cc43)nn2)cc1 | 112
* COc1ccc(Cn2cc(C(=O)N/N=C3/C(=O)Nc4c(C)cccc43)nn2)cc1 | 46.7
* COc1ccc(Cn2cc(C(=O)N/N=C3/C(=O)Nc4c(F)cccc43)nn2)cc1 | 111

---

Reported growth at 10 µM values are given for each entry in this list.
Tested on: SF-295
Experiment: Growth inhibition of human SF295 cells assessed as cell growth at 10 uM after 48 hrs by sulforhodamine B assay relative to control
Assay type: functional
Conditions: SF-295, 48 h, read-out: Activity
measure.name: growth at 10 µM (%)

* COc1ccc(Cn2cc(C(=O)N/N=C3/C(=O)Nc4ccc(C)cc43)nn2)cc1 | 111
* COc1ccc(Cn2cc(C(=O)N/N=C3/C(=O)Nc4c(C)cccc43)nn2)cc1 | 111
* COc1ccc(Cn2cc(C(=O)N/N=C3/C(=O)Nc4ccc(F)cc43)nn2)cc1 | 95.4
* COc1ccc(Cn2cc(C(=O)N/N=C3/C(=O)Nc4c(F)cccc43)nn2)cc1 | 98
* COc1ccc(Cn2cc(C(=O)N/N=C3/C(=O)Nc4ccc(Br)cc43)nn2)cc1 | 95.8
* COc1ccc(Cn2cc(C(=O)N/N=C3/C(=O)Nc4ccccc43)nn2)cc1 | 103
* COc1ccc(Cn2cc(C(=O)N/N=C3/C(=O)Nc4ccc(Cl)cc43)nn2)cc1 | 108
* COc1ccc(Cn2cc(C(=O)N/N=C3/C(=O)Nc4c(Cl)cccc43)nn2)cc1 | 109

---

Test system: M14
Assay: Growth inhibition of human M14 cells assessed as cell growth at 10 uM after 48 hrs by sulforhodamine B assay relative to control
Type: functional
Conditions: M14, 48 h, read-out: Activity
measure.name: growth at 10 µM (%)

- COc1ccc(Cn2cc(C(=O)N/N=C3/C(=O)Nc4ccc(Cl)cc43)nn2)cc1: 110
- COc1ccc(Cn2cc(C(=O)N/N=C3/C(=O)Nc4ccccc43)nn2)cc1: 103
- COc1ccc(Cn2cc(C(=O)N/N=C3/C(=O)Nc4ccc(F)cc43)nn2)cc1: 111
- COc1ccc(Cn2cc(C(=O)N/N=C3/C(=O)Nc4ccc(F)c(Cl)c43)nn2)cc1: 107
- COc1ccc(Cn2cc(C(=O)N/N=C3/C(=O)Nc4c(F)cccc43)nn2)cc1: 101
- COc1ccc(Cn2cc(C(=O)N/N=C3/C(=O)Nc4c(Cl)cccc43)nn2)cc1: 106
- COc1ccc(Cn2cc(C(=O)N/N=C3/C(=O)Nc4ccc(Br)cc43)nn2)cc1: 111
- COc1ccc(Cn2cc(C(=O)N/N=C3/C(=O)Nc4ccc(C)cc43)nn2)cc1: 109
- COc1ccc(Cn2cc(C(=O)N/N=C3/C(=O)Nc4c(C)cccc43)nn2)cc1: 71.9

---

Test system: CAKI-1
Test: Growth inhibition of human Caki1 cells assessed as cell growth at 10 uM after 48 hrs by sulforhodamine B assay relative to control
Format: functional
Conditions: CAKI-1, 48 h, read-out: Activity
Reported growth at 10 µM values are given for each entry in this list.
measure.name: growth at 10 µM (%)

• COc1ccc(Cn2cc(C(=O)N/N=C3/C(=O)Nc4ccccc43)nn2)cc1 = 93.3
• COc1ccc(Cn2cc(C(=O)N/N=C3/C(=O)Nc4ccc(F)c(Cl)c43)nn2)cc1 = 96.8
• COc1ccc(Cn2cc(C(=O)N/N=C3/C(=O)Nc4ccc(Cl)cc43)nn2)cc1 = 101
• COc1ccc(Cn2cc(C(=O)N/N=C3/C(=O)Nc4c(C)cccc43)nn2)cc1 = 77.1
• COc1ccc(Cn2cc(C(=O)N/N=C3/C(=O)Nc4ccc(C)cc43)nn2)cc1 = 95.4
• COc1ccc(Cn2cc(C(=O)N/N=C3/C(=O)Nc4c(Cl)cccc43)nn2)cc1 = 94.4
• COc1ccc(Cn2cc(C(=O)N/N=C3/C(=O)Nc4ccc(F)cc43)nn2)cc1 = 97.4
• COc1ccc(Cn2cc(C(=O)N/N=C3/C(=O)Nc4ccc(Br)cc43)nn2)cc1 = 97.7
• COc1ccc(Cn2cc(C(=O)N/N=C3/C(=O)Nc4c(F)cccc43)nn2)cc1 = 84.2
